Tested on: MIA PaCa-2
Condition summary: OFD1 knockdown: yes (Tet-on shOFD1, 100 ng/mL doxycycline)
Outcome measure: IC50 cell viability (µM)
Give the quantity in µM, number only.

In the examples that follow, each entry is paired with its recorded IC50 cell viability.
compound=COc1c(C)c2c(c(O)c1C/C=C(\C)CCC(=O)OCCN1CCOCC1)C(=O)OC2 units_of_measure=µM numeric_value=11.5
compound=O=c1[nH]cc(F)c(=O)[nH]1 units_of_measure=µM numeric_value=2.54
compound=Cc1c(C(=O)NN2CCCCC2)nn(-c2ccc(Cl)cc2Cl)c1-c1ccc(Cl)cc1 units_of_measure=µM numeric_value=17.7
compound=Nc1ccccc1NC(=O)c1ccc(CNc2nccc(-c3cccnc3)n2)cc1 units_of_measure=µM numeric_value=1.07
compound=COc1cccc2c1C(=O)c1c(O)c3c(c(O)c1C2=O)C[C@@](O)(C(C)=O)C[C@@H]3O[C@H]1C[C@H](N)[C@H](O)[C@H](C)O1 units_of_measure=µM numeric_value=3.39
compound="Cc1c(N)nc(C(CC(N)=O)NCC(N)C(N)=O)nc1C(=O)NC(C(=O)NC(C)C(O)C(C)C(=O)NC(C(=O)NCCc1nc(-c2nc(C(=O)NCCC[S+](C)C)cs2)cs1)C(C)O)C(O[C@@H]1O[C@@H](CO)[C@@H](O)[C@H](O)[C@@H]1O[C@H]1O[C@H](CO)[C@@H](O)[C@H](OC(N)=O)[C@@H]1O)c1cnc[nH]1 (stereo not given in full)" units_of_measure=µM numeric_value=1.69

Return IC50 cell viability measured with MIA PaCa-2 given this compound: `CC#C[C@]1(O)CC[C@H]2[C@@H]3CCC4=CC(=O)CCC4=C3[C@@H](c3ccc(N(C)C)cc3)C[C@@]21C`
8.71

Return IC50 cell viability measured with MIA PaCa-2 given this compound: Nc1cccc2c1CN(C1CCC(=O)NC1=O)C2=O (stereo not given)
42.9

Return IC50 cell viability measured with MIA PaCa-2 given this compound: CC(C)(C)NCC(O)c1ccc(O)c(CO)c1 (stereo not given)
4.1

Return IC50 cell viability measured with MIA PaCa-2 given this compound: CS(=O)(=O)CCNCc1ccc(-c2ccc3ncnc(Nc4ccc(OCc5cccc(F)c5)c(Cl)c4)c3c2)o1 [S1028]
15

----------
System: MIA PaCa-2
Condition summary: OFD1 knockdown: yes (Tet-on shOFD1, 100 ng/mL doxycycline)
Outcome measure: log10 IC50 cell viability (log10 of the value in µM)
Log10 applied to IC50 cell viability; unit prior to transform: µM.

compound=CC[C@H](NC(=O)[C@H](C)NC)C(=O)N1C[C@@H](O)C[C@H]1Cc1c(-c2[nH]c3cc(F)ccc3c2C[C@@H]2C[C@H](O)CN2C(=O)[C@H](CC)NC(=O)[C@H](C)NC)[nH]c2cc(F)ccc12 test_system="MIA PaCa-2" numeric_value=1.31
compound=N[C@@H](CC(=O)N1CCn2c(nnc2C(F)(F)F)C1)Cc1cc(F)c(F)cc1F test_system="MIA PaCa-2" numeric_value=1.33
compound=Cc1ccc(F)c(NC(=O)Nc2ccc(-c3cccc4[nH]nc(N)c34)cc2)c1 test_system="MIA PaCa-2" numeric_value=0.79
compound=CN1CCN(CCOc2cc(OC3CCOCC3)c3c(Nc4c(Cl)ccc5c4OCO5)ncnc3c2)CC1 test_system="MIA PaCa-2" numeric_value=0.91
compound=Cc1nc(-c2ccc(OCC(C)C)c(C#N)c2)sc1C(=O)O test_system="MIA PaCa-2" numeric_value=1.09

Which log10 IC50 cell viability is listed for `O=C(CCCCCCC(=O)Nc1ccccc1)NO` ?
0.71
